target: Etv1 R391A (human, UniProt P50549 326-429, R391A); assay: EMSA; 0.1 nM probe; 10 mM TCEP; EMSA: 50 mM Tris-HCl pH 7.5, 50 mM NaCl, 2 mM MgCl2, 0.01% Tween 20, 5% glycerol, 1 h at room temperature; proteins reduced with 10 mM TCEP unless stated; 10% native PAGE; details: protein: recombinant; tags: N-terminal His6 removed by TEV (leaves SM); blunt
Sequence (P50549 326-429 R391A): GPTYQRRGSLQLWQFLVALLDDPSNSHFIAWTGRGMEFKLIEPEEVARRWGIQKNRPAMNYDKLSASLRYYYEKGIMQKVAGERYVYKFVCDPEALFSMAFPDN
property-name: pKd
Please note pKd is a logarithmic value: minus log10 of concentration in mol/L. Answer with that number alone.

Give the reported pKd for this binder. Etv1ALF/Etv1ALR EMSA probe (dsDNA) DNA 1: ATCTCACCGGAAGTGTAGCA DNA 2: TGCTACACTTCCGGTGAGAT
8.07
